Listing of entries alongside the reported pIC50.
target: Adenosine kinase (Rattus norvegicus); experiment: Inhibitory activity against cytosolic adenosine kinase by ADO phosphorylation assay
# pIC50 = -log10(concentration in molar units)

Entry CC1CC(C)CC(c2cc(-c3ccc(N4CCOCC4)nc3)nc3ncnc(N)c23)C1 (stereo unspecified) has what pIC50? 9.64

Field entry: `Nc1ncnc2nc(-c3ccc(N4CCOCC4)nc3)cc(-c3cccc(Cl)c3Cl)c12` 8.30

New cases:
Entry `CN(C)c1ccc(-c2cc(-c3cccc(Br)c3)c3c(N)ncnc3n2)cc1` has what pIC50? 8.30

Field entry: `CN(C)c1ccc(-c2cc(-c3cccc(C(F)(F)F)c3)c3c(N)ncnc3n2)cc1` 7.44

Field entry: CC(c1ccccc1Br)c1cc(-c2ccc(N3CCOCC3)nc2)nc2ncnc(N)c12 (stereo unspecified) 9.60

Field entry: `Nc1ncnc2nc(-c3ccc(N4CCOCC4)nc3)cc(-c3ccco3)c12` 8.00

Field entry: `CN(C)c1ccc(-c2cc(-c3cccc(O)c3)c3c(N)ncnc3n2)cc1` 7.36

Field entry: `CN(C)c1ccc(-c2cc(-c3cccc(Cl)c3)c3c(N)ncnc3n2)cc1` 7.82

###

molecular target: Adenosine kinase (Rattus norvegicus, UniProt Q64640); experiment: Inhibitory activity against cytosolic adenosine kinase by ADO phosphorylation assay
Sequence (Q64640 whole entry): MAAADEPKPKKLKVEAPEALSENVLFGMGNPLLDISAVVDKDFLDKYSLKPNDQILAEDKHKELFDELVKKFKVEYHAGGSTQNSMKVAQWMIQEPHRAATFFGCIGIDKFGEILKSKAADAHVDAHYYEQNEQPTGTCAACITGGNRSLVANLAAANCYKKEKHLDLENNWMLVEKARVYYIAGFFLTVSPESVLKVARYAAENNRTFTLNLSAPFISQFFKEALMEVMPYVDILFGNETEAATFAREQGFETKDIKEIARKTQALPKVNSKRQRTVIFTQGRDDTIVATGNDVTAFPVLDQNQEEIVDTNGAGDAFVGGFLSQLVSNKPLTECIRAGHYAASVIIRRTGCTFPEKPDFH
readout_label: IC50 (nM)
Number in nM, nothing else.

Previously resolved entries follow.
Requested read-out IC50, target or system Adenosine kinase (Rattus norvegicus, UniProt Q64640), entry `C=CC(C)(C)c1cc(-c2ccc(N3CCOCC3)nc2)nc2ncnc(N)c12` 21

Field entry: `Nc1ncnc2nc(-c3ccc(N4CCOCC4)nc3)cc(Cc3ccccc3Br)c12` 0.17

Field entry: `Nc1ncnc2nc(-c3ccc(N4CCOCC4)nc3)cc(C3CCCCC3)c12` 3

Field entry: `Nc1ncnc2nc(-c3ccc(N4CCOCC4)nc3)cc(-c3cccc(Br)c3)c12` 2

New cases:
Requested read-out IC50, target or system Adenosine kinase (Rattus norvegicus, UniProt Q64640), entry `Nc1ncnc2nc(-c3ccc(N4CCOCC4)nc3)cc(-c3cc(Cl)ccc3Cl)c12` 38

Field entry: `CCCCc1cc(-c2ccc(N(C)C)cc2)nc2ncnc(N)c12` 11

Field entry: `CN(C)c1ccc(-c2cc(-c3cccc(I)c3)c3c(N)ncnc3n2)cc1` 17

Field entry: `CN(C)c1ccc(-c2cc(-c3ccccc3)c3c(N)ncnc3n2)cc1` 7

Field entry: `Nc1ncnc2nc(-c3ccc(N4CCOCC4)nc3)cc(-c3cccc(Cl)c3)c12` 9

###

target: Adenosine kinase (Rattus norvegicus); test: Inhibitory activity against intact cell adenosine kinase by ADO phosphorylation assay
pIC50: −log10 of the molar value.
Label Criterion met when pIC50 is at or above 7; otherwise label Criterion not met.

# count of solved cases: 2
Could you please find out whether `Nc1ncnc2nc(-c3ccc(N4CCOCC4)nc3)cc(-c3cc(Cl)ccc3Cl)c12` has pIC50 that meets 7 or exceeds it? Criterion not met

Field entry: `CN(C)c1ccc(-c2cc(-c3ccccc3)c3c(N)ncnc3n2)cc1` Criterion not met

New cases:
Could you please find out whether `CN(C)c1ccc(-c2cc(C3CCCCC3)c3c(N)ncnc3n2)cc1` has pIC50 that meets 7 or exceeds it? Criterion not met

Field entry: `Nc1ncnc2nc(-c3ccc(N4CCOCC4)nc3)cc(C3CCCCC3)c12` Criterion met

Field entry: `Nc1ncnc2nc(-c3ccc(N4CCOCC4)nc3)cc(-c3cccnc3)c12` Criterion not met

Field entry: `CN(C)c1ccc(-c2ccc3c(N)ncnc3n2)cc1` Criterion not met

Field entry: CC(c1ccccc1Br)c1cc(-c2ccc(N3CCOCC3)nc2)nc2ncnc(N)c12 (stereo unspecified) Criterion met

Field entry: `CN(C)c1ccc(-c2cc(-c3cccc(C#N)c3)c3c(N)ncnc3n2)cc1` Criterion not met
